Each recorded value in this set is attributed to the RepoRT retention time repository (doi:10.1021/acs.analchem.1c00972).

procedureSummary: RP, Waters ACQUITY UPLC BEH C18, 100 × 1 mm, 1.7 µm, 50 °C, 0.3 mL/min, estimated dead time 0.17 min; A: water + 0.1% formic acid + 20 mM ammonium formate; B: methanol + 0.1% formic acid + 20 mM ammonium formate; gradient (min/%B) 0/0 15/100 21/100 22/0 30/0
conditionLabel: stereoisomer not certain

compound	LC retention time (min)
c1ccc2sc(N3CCOCC3)nc2c1	12.7
O=c1cccc2n1CC1CNCC2C1 (stereo unspecified)	2.31
CC(C)(c1ccc(O)cc1)c1ccc(O)cc1	18.3
O=P(O)(Oc1ccccc1)Oc1ccccc1 [Diphenylphosphate]	11
COc1ncc(F)c2nc(S(=O)(=O)Nc3c(F)cccc3F)nn12	10.5
O=[N+]([O-])c1ccc(O)cc1	9.08
COC1CC(OC2C(C)OC(OC3C(C)=CCC4CC(CC5(CCC(C)C(C(C)C)O5)O4)OC(=O)C4C=C(C)C(O)C5OCC(=CC=CC3C)C45O)CC2OC)OC(C)C1O (stereo unspecified)	5.5
Oc1ccc(C(F)(F)F)cc1	12.8
O=C(O)/C=C/c1cccc(O)c1 [trans-3-Hydroxycinnamic acid]	7.5
C=CC1CN2CCC1CC2C(O)c1ccnc2ccc(OC)cc12 (stereo unspecified)	9.5
CCOC(=O)C(CCc1ccccc1)NC(C)C(=O)N1CCCC1C(=O)O (stereo unspecified)	11.7
COP(N)(=S)Oc1ccccc1C(=O)OC(C)C (stereo unspecified)	13.2
COP(=O)(OC)SCn1c(=O)oc2cc(Cl)cnc21	11.4
N#CCCCCC#N	5.21
COc1cc2c(cc1OC)C13CCN4CC5=CCOC6CC(=O)N2C1C6C5CC43 (stereo unspecified)	8.1
Cc1cccc2n[nH]nc12	9.9
O=c1c2cc(F)ccc2nc(-n2cncn2)n1-c1ccc(Cl)cc1Cl	14.7
CC=C1C2C=C(C)CC1(N)c1ccc(=O)[nH]c1C2 (stereo unspecified)	7.5
O=C1C(O)Oc2ccccc2N1O (stereo unspecified)	7.76
COc1ccc(NS(=O)(=O)c2ccc(N)cc2)nn1	8.03
CC(C)c1ccc2sc3ccccc3c(=O)c2c1	17.2
C=C1C(=O)OC2CCN3CC=C(COC(=O)C(C)(O)C(C)C1C)C23 (stereo unspecified)	8.55
CCCCCCCCSCCOCCOCCOCCO	18.3
CC(=O)C1(O)CCC2C3CC(C)C4=CC(=O)CCC4(C)C3CCC21C (stereo unspecified)	15.2
COCN(COC)c1nc(N(COC)COC)nc(N(COC)COC)n1	12.6
CCN(CC)CCNC(=O)c1cc(S(C)(=O)=O)ccc1OC [Tiapride]	6.49
CC12CCC(=O)C=C1CCC1C2CCC2(C)C(OC3OC(C(=O)O)C(O)C(O)C3O)CCC12 (stereo unspecified) [testosterone_glucuronide]	13.6
CC(=O)Nc1c(I)c(NC(C)=O)c(I)c(C(=O)O)c1I [Diatrizoate]	4.47
CCCC(CCC)C(=O)O	14.2
C=C(C)C1C2OC(=O)C1C1(O)CC3OC34C(=O)OC2C14C (stereo unspecified)	9.25
CN1C2CC(OC(=O)C(CO)c3ccccc3)CC1C1OC12 (single isomer, unassigned; (-)) [(-)-Scopolamine]	7.05
CC=C(C)C(=O)OC1CCN2CC=C(COC(=O)C(O)(C(C)OC)C(C)(C)O)C12 (stereo unspecified)	10.4
CC(C)OC(=O)c1ccccc1C(=O)OC(C)C [Diisopropylphthalate]	15.1
CCCc1nc(C(C)(C)O)c(C(=O)O)n1Cc1ccc(-c2ccccc2-c2nn[nH]n2)cc1	10.9
COc1cc(OC)n2nc(NS(=O)(=O)c3c(C(F)(F)F)ccnc3OC)nc2n1	11.7
COc1nc(NC(C)C)nc(NC(C)C)n1	12.2

* * *

procedureSummary: RP, Waters ACQUITY UPLC BEH C18, 100 × 1 mm, 1.7 µm, 50 °C, 0.3 mL/min, estimated dead time 0.17 min; A: water + 10 mM ammonium bicarbonate; B: 10% water + 90% methanol + 10 mM ammonium bicarbonate; gradient (min/%B) 0/0 15/100 21/100 22/0 30/0
conditionLabel: stereoisomer not certain
observedProperty: LC retention time (min)

                                    compound  displayunit  endpointresult
 0  CCCOP(=S)(OCCC)SCC(=O)N1CCCCC1C (stereo not drawn)          min            16.6
 1  COc1cc2c(c(OC)c1OC)-c1ccc(OC)c(=O)cc1C(NC(C)=O)CC2 (stereo not drawn)          min            11.6
 2  CC=C1CC(C)C(O)(CO)C(=O)OCC2=CC[N+]3([O-])CCC(OC1=O)C23 (stereo not drawn) [Retrorsine N-oxide]          min            8.61
 3  CC(=O)OCC12CCC(C)=CC1OC1C(O)C(OC(C)=O)C2(C)C12CO2 (stereo not drawn)          min            12.1
 4   CCC(C)(CC)c1cc(NC(=O)c2c(OC)cccc2OC)on1          min            14.6
 5  CCCCOC(=O)N(C)SN(C)C(=O)Oc1cccc2c1OC(C)(C)C2          min            17.1
 6                          Cc1ccc(C)c(O)c1C          min            13.3
 7                             Nc1cccc(Cl)c1          min            10.6
 8                           CSc1nc2ccccc2s1          min            14.3
 9  O=c1c(OC2OC(CO)C(O)C(O)C2O)c(-c2ccc(O)c(O)c2)oc2cc(O)cc(O)c12 (stereo not drawn) [Hyperoside]          min             6.8
10  CC(=O)c1cc2c(cc1C)C(C)(C)C(C)C2C(C)C (stereo not drawn) [Traseolide]          min            18.2
11  CC12CCC(=O)C=C1CCC1C2CCC2(C)C(O)CCC12 (stereo not drawn)          min            14.6
12  CCCCCCCOC(=O)c1ccccc1C(=O)OCCCCCCC [Di-n-heptylphthalate]          min            19.4

* * *

procedureSummary: RP, Waters ACQUITY UPLC BEH C18, 100 × 1 mm, 1.7 µm, 50 °C, 0.3 mL/min, estimated dead time 0.17 min; A: water + 10 mM ammonium bicarbonate; B: 10% water + 90% methanol + 10 mM ammonium bicarbonate; gradient (min/%B) 0/0 15/100 21/100 22/0 30/0
conditionLabel: stereoisomer not certain
compounds and their reported LC retention time
observedProperty: LC retention time

>>> df
                                   compound  endpointresult
0    Cc1nc2ccccc2s1 [2-Methylbenzothiazole]        12.6 min
1                 c1ccc2ncccc2c1 [Chinolin]        11.4 min
2  CN1CCN(C2=Nc3cc(Cl)ccc3Nc3ccccc32)CC1 [Clozapine]        15.7 min
3  C=CCOC(=O)C(C)(C)OC(=O)c1cc(-n2c(=O)cc(C(F)(F)F)n(C)c2=O)ccc1Cl [Butafenacil]        15.1 min
4  CC1CCC2(OC1)OC1CC3C4CC=C5CC(O)CCC5(C)C4CCC3(C)C1C2C (stereo not given) [Diosgenin]        19.6 min

* * *

procedureSummary: RP, Waters ACQUITY UPLC BEH C18, 100 × 1 mm, 1.7 µm, 50 °C, 0.3 mL/min, estimated dead time 0.17 min; A: water + 0.1% formic acid + 20 mM ammonium formate; B: methanol + 0.1% formic acid + 20 mM ammonium formate; gradient (min/%B) 0/0 15/100 21/100 22/0 30/0
conditionLabel: stereoisomer not certain
Could you mark each record MET if its LC retention time falls strictly under 10 min, and NOT MET if it equals or exceeds it?

molecule	classLabel
Clc1ccccc1-c1nnc(-c2ccccc2Cl)nn1	NOT MET
CC1CC2(OC2C)C(=O)OC2CCN3CC=C(COC(=O)C1(C)O)C23 (configuration not stated)	MET
NS(=O)(=O)Cc1noc2ccccc12 [Zonisamide]	MET
CCc1ccc(CCOc2ccc(CC3SC(=O)NC3=O)cc2)nc1 (configuration not stated)	NOT MET
CC(=O)OC1C(=O)C2(C)C(O)CC3OCC3(OC(C)=O)C2C(OC(=O)c2ccccc2)C2(O)CC(O)C(C)=C1C2(C)C (configuration not stated)	NOT MET
COCCOCCOCCOCCOC	MET
CCC1CCCC(OC2CCC(N(C)C)C(C)O2)C(C)C(=O)C2=CC3C(C=C(C)C4CC(OC5OC(C)C(OC)C(OC)C5OC)CC43)C2CC(=O)O1 (single isomer, unassigned; isomer 2) [Spinosad (Isomer 2)]	NOT MET
CCCCCC(O)CC(=O)CCc1ccc(O)c(OC)c1 (configuration not stated) [[6]-Gingerol]	NOT MET
O=C(O)COCCN1CCN(C(c2ccccc2)c2ccc(Cl)cc2)CC1 (configuration not stated)	NOT MET
O=C(O)Cc1c(Cl)ccc(Cl)c1Cl	MET
CCN1CC2(COC)C(O)CC(OC)C34C5CC6(O)C(OC)C(O)C(OC(C)=O)(C5C6OC(=O)c5ccccc5)C(C(OC)C23)C14 (configuration not stated)	NOT MET
CCOP(=O)(NC(C)C)Oc1ccc(S(C)(=O)=O)c(C)c1 (configuration not stated)	NOT MET
CCOc1ccc(NC(=O)OC(C)C)cc1OCC	MET
CNCCC(Oc1cccc2ccccc12)c1cccs1 (configuration not stated)	NOT MET
COc1c2ccoc2c(OC)c2oc(=O)ccc12	NOT MET
O=C1CC2OCC=C3CN4CCC56c7ccccc7N1C5C2C3CC46 (single isomer, unassigned; (-)) [(-)-Strychnine]	MET
